Catalogue of z-score readings, one per entry.
# assay-name: A549 lung cancer cell viability effects, profiling panel, resazurin fluorescence, 24 h, PK04 Diversity Set (AID 1171); further: test concentration not given here
# condition-summary: higher = more signal, called active from +8 up or from −8 down

record-smiles	z-score
O=C1O[C@@H](c2ccccc2)[C@@H](c2ccccc2)N2[C@@H](c3ccc(OCCO)cc3)[C@]3(C(=O)Nc4ccccc43)[C@@H](C(=O)Nc3nc4ccccc4s3)[C@H]12	-1.4
C=CCN1C(=O)[C@]2(O[C@H](CCO)[C@@H]([Si](C)(C)c3ccc(OC)cc3)[C@@H]2C)c2cc(NC(=O)[C@H](C)O)ccc21	-0.848
[N-]=[N+]=NCc1ccccc1[C@H]1OC(c2ccc(OCCCO)cc2)=N[C@@]1(CCS(=O)(=O)c1ccccc1)C(=O)N1CCOCC1	0.388
CCOC(=O)C[C@H]1[C@H](OC(=O)Cc2ccc3c(c2)OCO3)[C@@H](NC(=O)C2CCCCC2)c2cc(OCCCO)ccc2N1C(=O)Cc1ccc(OC)cc1	-0.247
O=C(O)[C@@]1(Cc2ccccc2)N=C(c2ccc(OCCCO)cc2)O[C@H]1c1ccccc1	0.575
CCOC(=O)C[C@H]1[C@H](OC(=O)c2ccc(-c3ccccc3)cc2)[C@@H](NC(=O)c2ccc3ccccc3c2)c2cc(OCCCO)ccc2N1C(=O)Cc1ccc(OC)cc1	0.24

---

Catalogue of composite z-score readings, one per entry.
# assay-name: compound binding in COS7 lysate, probe aLAP1, primary screen, cell lysate, small-molecule microarray (AID 1124);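 further: lysate comes from COS7 cells expressing LAP1 and is applied at 0.3 µg/mL; score merges spot fluorescence near 667 nm with signal-to-noise over triplicate slides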
# condition-summary: probe aLAP1, fluorescence, higher = more signal

compound	composite z-score
CC(C)=CCCC(C)=CC(O)C1C=CC2C(=O)N(c3ccccc3)C(=O)C2N1Nc1ccccc1 (stereo unspecified)	0.78
O=C1O[C@H](c2ccccc2)[C@H](c2ccccc2)N2[C@H]1[C@@H](C(=O)O)[C@]1(C(=O)Nc3ccc(C#CC4=CCCCC4)cc31)[C@H]2c1ccc(OCCO)cc1	1.48
C=C(COC)C(=O)CC[C@H](OC(C)=O)c1cccc(OCCO)c1	0.775
CC(C)(C)OC(=O)CC[C@@]1(C(=O)O)N=C(c2ccc(OCCCO)cc2)O[C@@H]1c1ccccc1N=[N+]=[N-]	0.298
C=CCC(OC(C)=O)[C@@H]1[C@@H](N(Cc2ccc(-c3cccc(C(F)(F)F)c3)o2)C(=O)c2ccc(C)cc2)c2cc(OCCCO)ccc2N1C(=O)c1ccc(-c2ccccc2)cc1 (stereo partly specified)	-0.0012
CCCCC(CC)C(O)C1C=CC2C(=O)N(c3ccccc3)C(=O)C2N1Nc1ccccc1 (stereo unspecified)	0.297
CCOC(=O)C1=CCC(c2ccc(C#N)cc2)N(S(=O)(=O)c2ccc(C)cc2)C1 (stereo unspecified)	1.18
CC(C)C[C@@H]1NC(=O)[C@@H]2C[C@H](C(=O)NCCCCCC[N+](C)(C)C)[C@H](c3ccc(O)cc3)N2C1=O	0.301
COc1ccc(CCNC(=O)[C@@H]2c3ccccc3C(=O)N(Cc3ccc(OC(F)(F)F)cc3)[C@H]2c2ccc(CO)cc2)cc1	0.983
CC(=CC1CCCCC1)[C@@H](NC(=O)c1ccc(C(F)(F)F)cc1)c1ccc(-c2ccccc2)cc1	-0.223
CO[C@H]1O[C@H](CO)[C@@H](OC(=O)Nc2ccc(Oc3ccccc3)cc2)[C@H](OC(=O)Nc2ccccc2)[C@H]1OC(=O)Nc1ccccc1	-0.0652
COCCOC(=O)N1C(=O)[C@@]2(c3cc(C#CCCO)ccc31)[C@H](C(=O)NC[C@H](O)c1ccccc1)[C@H]1C(=O)O[C@H](c3ccccc3)[C@H](c3ccccc3)N1[C@@H]2c1ccc(O)cc1	0.16
COCCOC(=O)N1C(=O)[C@@]2(c3cc(C#CCNC(N)=O)ccc31)[C@H](c1ccc(O)cc1)N1[C@H](c3ccccc3)[C@H](c3ccccc3)OC(=O)[C@H]1[C@@H]2C(=O)Nc1nc2ccccc2s1	0.243
CCOC(=O)[C@H]1C[C@H]2O[C@@]23C[C@H]1C(=O)N1CCCC1[C@@H]3O[Si](C)(C)C(C)(C)C (stereo partly specified)	-0.244
[N-]=[N+]=NCc1ccccc1C[C@]1(C(=O)O)N=C(c2ccc(OCCCO)cc2)O[C@H]1c1ccccc1	0.249
COC(=O)C(CC#Cc1ccc2c(c1)[C@]1(C(=O)N2)[C@H](c2ccc(OCCO)cc2)N2[C@H](c3ccccc3)[C@H](c3ccccc3)OC(=O)[C@H]2[C@@H]1C(=O)NC[C@H](O)c1ccccc1)C(=O)OC	-0.131

# credit: PubChem BioAssay
